assay: SI (selectivity index) is the ratio of TC50 to EC50; format: functional
So I've got a bunch of molecules here, and I need their SI values.
Numbers only.

O=[N+]([O-])c1ccc(/C(=N/c2ccccc2)Nc2ccccc2)cc1 4
Clc1ccc(/C(=N/c2ccccc2)Nc2ccccc2)cc1 125

Exam item: Which SI is reported for this molecule? Brc1ccc(/C(=N/c2ccccc2)Nc2ccccc2)cc1
Marked response: 2

====

assay: Compound was tested for the drug concentration which reduces the viability of uninfected C8166 cells by 50%; assay type: cell-based; settings: human, read-out: TC50 (the source's name)
endpoint: CC50 (µM)
Answers are plain numbers, in µM.

Brc1ccc(/C(=N/c2ccccc2)Nc2ccccc2)cc1 200
c1ccc(/N=C(\Nc2ccccc2)c2ccccc2)cc1 400

For the 2 compounds below, give their CC50 values.
1. Clc1ccc(/C(=N/c2ccccc2)Nc2ccccc2)cc1
2. O=[N+]([O-])c1ccc(/C(=N/c2ccccc2)Nc2ccccc2)cc1

Marked response:
1. 1000
2. 80

Exam item: Which CC50 is reported for this compound? COc1ccc(/C(=N/c2ccccc2)Nc2ccccc2)cc1
Marked response: 80

====

test: SI (selectivity index) is the ratio of TC50 to EC50; type: functional
So I've got a bunch of molecules here, and I need their SI values.

Here's what some known entries look like.
molecule	endpoint	value_observed
Cc1cn([C@H]2C[C@H](N=[N+]=[N-])[C@@H](CO)O2)c(=O)[nH]c1=O [ZIDOVUDINE]	SI	> 6
COc1ccc(/C(=N/c2ccccc2)Nc2ccccc2)cc1	SI	< 1
Cc1ccc(/C(=N/c2ccccc2)Nc2ccccc2)cc1	SI	< 1

Please examine the following record next.
Exam item: Which SI is reported for this molecule? c1ccc(/N=C(\Nc2ccccc2)c2ccccc2)cc1
Marked response: < 1
